Biological target: TRPML3 (Homo sapiens, UniProt Q8TDD5)
Construct: expressed in transfected cells
Sequence (Q8TDD5 1-553): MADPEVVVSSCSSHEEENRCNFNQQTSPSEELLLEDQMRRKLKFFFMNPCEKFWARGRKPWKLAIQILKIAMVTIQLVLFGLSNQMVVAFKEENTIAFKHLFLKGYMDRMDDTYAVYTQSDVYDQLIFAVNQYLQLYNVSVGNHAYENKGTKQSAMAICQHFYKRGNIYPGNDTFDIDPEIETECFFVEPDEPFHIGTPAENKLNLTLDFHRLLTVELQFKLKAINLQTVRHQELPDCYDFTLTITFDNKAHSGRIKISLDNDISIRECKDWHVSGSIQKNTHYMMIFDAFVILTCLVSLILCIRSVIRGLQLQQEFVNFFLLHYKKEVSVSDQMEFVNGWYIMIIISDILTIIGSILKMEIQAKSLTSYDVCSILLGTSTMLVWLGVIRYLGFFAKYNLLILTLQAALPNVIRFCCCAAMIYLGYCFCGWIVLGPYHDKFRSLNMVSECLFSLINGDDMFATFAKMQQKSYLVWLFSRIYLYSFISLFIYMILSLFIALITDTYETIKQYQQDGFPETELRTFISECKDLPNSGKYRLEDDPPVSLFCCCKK
Experiment: Fluorescent TRPML3 assay (performed as for TRPML1, substituting the TRPML3 subtype)
Type: cell-based
Experimental: HEK-293 Trex cells were stably transfected with a construct consisting of the human coding sequence for TRPML1 cloned into the […] plasmid pCDNA5 T/O. Mutations were introduced into the TRPML1 sequence to facilitate expression on the cell surface (Silvia Vergarajauregui, Rosa Puertollano, Traffic. 2006 March; 7(3): 337-353). […] The Trypsin-EDTA is diluted with growth media, and cells are counted. […] EC50 values were calculated using a non-linear regression of Prism. […]
MEASUREMENT_LABEL: EC50

Cc1cn(-c2cc(C(F)(F)F)ccn2)c2ncnc(N3CCN(C(=O)OC(C)(C)C)C[C@@H]3C)c12 [Compound 682]: < 0.1 µM
C#Cc1ccnc(-n2cc(C(F)(F)F)c3c(N4C[C@@H](C)N(C(=O)OC(C)(C)C)C[C@@H]4C)ncnc32)c1 [Compound 716]: 0.1 to 0.5 µM
C[C@@H]1CN(c2ncnc3c2c(C(F)F)cn3C2CCCC2)[C@@H](C)CN1C(=O)OC(C)(C)C [Compound 628]: 0.5 to 2 µM
C[C@@H]1CN(c2ncnc3c2c(C(F)F)cn3C2CCCC(C#N)C2)[C@@H](C)CN1C(=O)OC(C)(C)C (some centres unmarked) [Compound 633]: 0.5 to 2 µM
C[C@@H]1CN(c2ncnc3c2c(C(F)(F)F)cn3-c2cccc(F)c2)[C@@H](C)CN1C(=O)OC(C)(C)C [Compound 496]: < 0.1 µM

Value of measured EC50 for the entry COc1ccnc(-n2cc(C3CC3)c3c(N4C[C@@H](C)N(C(=O)OC(C)(C)C)C[C@@H]4C)ncnc32)c1 [Compound 642] : 0.1 to 0.5 µM

Value of measured EC50 for the entry [2H]C([2H])([2H])[C@@H]1CN(c2ncnc3c(-c4cc(C#N)ccn4)cn(-c4ccccc4F)c23)[C@@H](C)CN1C(=O)OC(C)(C)C [Compound 709] : < 0.1 µM

---

target: TRPML1 (Homo sapiens, UniProt Q9GZU1); assay: Fluorescent TRPML1 assay (Fluo4-AM calcium fluorescence in doxycycline-induced HEK-293 Trex cells); type: cell-based; settings: fluorescent calcium assay
Sequence (Q9GZU1 whole entry L15A/L16A/L577A/L578A, form open): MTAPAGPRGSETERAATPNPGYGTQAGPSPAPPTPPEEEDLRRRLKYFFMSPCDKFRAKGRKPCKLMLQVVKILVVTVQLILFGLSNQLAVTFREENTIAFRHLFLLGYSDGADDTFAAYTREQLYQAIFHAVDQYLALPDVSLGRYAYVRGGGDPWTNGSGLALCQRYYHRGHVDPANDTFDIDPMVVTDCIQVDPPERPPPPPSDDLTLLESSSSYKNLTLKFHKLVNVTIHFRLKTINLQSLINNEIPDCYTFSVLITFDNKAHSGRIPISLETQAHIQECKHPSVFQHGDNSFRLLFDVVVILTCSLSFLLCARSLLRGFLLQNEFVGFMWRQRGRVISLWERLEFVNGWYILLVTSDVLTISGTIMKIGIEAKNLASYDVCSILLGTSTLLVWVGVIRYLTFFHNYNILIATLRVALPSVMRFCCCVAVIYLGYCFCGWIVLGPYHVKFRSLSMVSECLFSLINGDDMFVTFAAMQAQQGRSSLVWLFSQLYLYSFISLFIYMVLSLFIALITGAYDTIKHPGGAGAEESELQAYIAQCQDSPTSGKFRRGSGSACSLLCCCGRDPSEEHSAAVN
MEASUREMENT_LABEL: EC50

Illustrative cases are given below, each with its answer.
Cc1c(Cl)cccc1-n1cc(-c2ccccn2)c2c(N3CCN(C(=O)OC(C)(C)C)CC3C)ncnc21 (stereo not shown): 100 to 500 nM
C[C@H]1CN(C(=O)OC(C)(C)C)CCN1c1ncnc2c1c(C1CC1)cn2-c1cccc(C#N)c1: < 100 nM
C[C@H]1CN(C(=O)OCC(F)(F)F)CCN1c1ncnc2c1c(C1CC1)cn2-c1cc(C#N)ccn1: < 100 nM

Value of measured EC50 for the entry Cc1nccnc1-c1cn(-c2ccc(F)c(F)c2)c2ncnc(N3C[C@@H](C)N(C(=O)OC(C)(C)C)C[C@@H]3C)c12 : 100 to 500 nM
